Values compiled from patent US20110097323A1.

# measurement target: CD16A V158 (human, UniProt P08637 17-208, limits assumed)
# Sequence (P08637 17-208 F176V limits assumed): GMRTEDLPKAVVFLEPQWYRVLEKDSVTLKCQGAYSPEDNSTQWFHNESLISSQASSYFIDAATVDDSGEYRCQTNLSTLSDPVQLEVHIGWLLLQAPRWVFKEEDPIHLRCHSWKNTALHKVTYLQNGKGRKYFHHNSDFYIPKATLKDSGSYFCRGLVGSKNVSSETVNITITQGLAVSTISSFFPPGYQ
# test description: Table 3; relative to wild-type Fc; method not stated
measurement label: binding relative to wild-type Fc (fold)
Answers are plain numbers.

In the examples that follow, each entry is paired with its recorded binding relative to wild-type Fc (fold).
binder	binding relative to wild-type Fc (fold)
Fc variant F243L P247L D270E N421K (other, UniProt P01857-1 99-330, looked up, name in EU numbering, domain: Fc region; positions are EU index) EPKSCDKTHTCPPCPAPELLGGPSVFLLPPKLKDTLMISRTPEVTCVVVDVSHEEPEVKFNWYVDGVEVHNAKTKPREEQYNSTYRVVSVLTVLHQDWLNGKEYKCKVSNKALPAPIEKTISKAKGQPREPQVYTLPPSRDELTKNQVSLTCLVKGFYPSDIAVEWESNGQPENNYKTTPPVLDSDGSFFLYSKLTVDKSRWQQGKVFSCSVMHEALHNHYTQKSLSLSPGK	2.3
Fc variant F243L D270E P396L Q419H (other, UniProt P01857-1 99-330, looked up, name in EU numbering, domain: Fc region; positions are EU index) EPKSCDKTHTCPPCPAPELLGGPSVFLLPPKPKDTLMISRTPEVTCVVVDVSHEEPEVKFNWYVDGVEVHNAKTKPREEQYNSTYRVVSVLTVLHQDWLNGKEYKCKVSNKALPAPIEKTISKAKGQPREPQVYTLPPSRDELTKNQVSLTCLVKGFYPSDIAVEWESNGQPENNYKTTPLVLDSDGSFFLYSKLTVDKSRWQHGNVFSCSVMHEALHNHYTQKSLSLSPGK	1.46

Could you now consider this next binder?
-- ask If you can, please state the reported binding relative to wild-type Fc (fold) value of Fc variant F243L R292P V305I (other, UniProt P01857-1 99-330, looked up, name in EU numbering, domain: Fc region; positions are EU index) EPKSCDKTHTCPPCPAPELLGGPSVFLLPPKPKDTLMISRTPEVTCVVVDVSHEDPEVKFNWYVDGVEVHNAKTKPPEEQYNSTYRVVSILTVLHQDWLNGKEYKCKVSNKALPAPIEKTISKAKGQPREPQVYTLPPSRDELTKNQVSLTCLVKGFYPSDIAVEWESNGQPENNYKTTPPVLDSDGSFFLYSKLTVDKSRWQQGNVFSCSVMHEALHNHYTQKSLSLSPGK .
-- reply 2.56
